Test: Acute Toxicity Test, rats
Details: rat, in vivo, ip, abdominal, female rats; calculated according to Behrens-Karber method (*)

| smiles notation | u | LD50 |
| --- | --- | --- |
| CON1CCC(=Cc2cc(C(C)(C)C)c(O)c(C(C)(C)C)c2)C1=O | mg/kg | 46.9 |

---

Experiment: Acute Toxicity Test, mice
Type: in vivo
Settings: mouse, in vivo, ip, abdominal, male mice; confidence range 523~2270
Description: LD 50 of the compound B, falling within the scope of the invention, was investigated in respect to acute toxicity, using rats and mice. *Values were calculated according to BehrensKarber method. The oral administration was conducted after a fasting treatment for 17 to 24 hours

| molecule | u | LD50 |
| --- | --- | --- |
| CON1CCC(=Cc2cc(C(C)(C)C)c(O)c(C(C)(C)C)c2)C1=O [Compound B] | mg/kg | 1070 |

Measured values drawn from patent US4833160A for this set.
